What protein stability index was measured for each of the following?
testName: protein stability index of a GFP-peptide fusion (GPS, HEK-293T) (PSI 1-6); higher = more stable;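 note: 24-mer peptide tiles fused after GFP, lentivirally expressed, FACS-sorted into six equal bins by GFP/DsRed ratio, decoded by Illumina sequencing, PSI is the read-weighted mean bin number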
runParameters: treatment: DMSO; c terminus: a fixed tail appended
Just the number, please, no unit after it.

query: Find the recorded protein stability index belonging to LDCADALLKAGADVNKTDHSQRTA [INVS] and report it.
result: 5.09

query: Find the recorded protein stability index belonging to MWYPEIKHFCPRTPVILVGCQLDL [RHOBTB1] and report it.
result: 2.91

query: Find the recorded protein stability index belonging to GSKGEKDLGASSLHVNGESLEMDS [EHMT1] and report it.
result: 5.28

query: Find the recorded protein stability index belonging to CPIIRIPNRFLRGHRPPPARSGHR [KLHDC10] and report it.
result: 2.68

query: Find the recorded protein stability index belonging to ISLHPFNPWNWGKLAEAYLNLGPA [C8orf76] and report it.
result: 2.23

query: Find the recorded protein stability index belonging to SCQSFISWTGDGWEFKLSDPDEVA [ETS1] and report it.
result: 3.12

query: Find the recorded protein stability index belonging to RPEELLQMELLLVNKLKWNLAAMT [CCND1] and report it.
result: 2.68

query: Find the recorded protein stability index belonging to WFQDPTRFTGTMDAFVKIVRHEGT [SLC25A39] and report it.
result: 2.17

query: Find the recorded protein stability index belonging to ARIVEIYSRRLQVQERLTKQIAVA [GCH1] and report it.
result: 2.33

query: Find the recorded protein stability index belonging to LSGATKKGTEKQTTSETQKSVQCG [NETO1] and report it.
result: 5.17

query: Find the recorded protein stability index belonging to SMEVFTHYDLLNLNGTKVAEGHKA [LOXL2] and report it.
result: 4.39

query: Find the recorded protein stability index belonging to EVKFPNASDMFRRLRDAGFRVTLW [MYORG] and report it.
result: 2.97

query: Find the recorded protein stability index belonging to VRNDSCVVHEDFREDILSCYDVYS [PKD2L1] and report it.
result: 2.99

query: Find the recorded protein stability index belonging to LEATVKKLEESKQLLKNNEKLITW [SASS6] and report it.
result: 2.73

query: Find the recorded protein stability index belonging to EGAQRDRFPGRKQPGVHEEPVLKK [C22orf31] and report it.
result: 5.15

query: Find the recorded protein stability index belonging to FYMFAWTHVTLLITVTQSHLVIQN [CDS1] and report it.
result: 3.01

query: Find the recorded protein stability index belonging to KKQTKVEFPEARIFEETLNILIYE [KCTD13] and report it.
result: 2.16

query: Find the recorded protein stability index belonging to SWEKVTGHNSPLYKRQEESGAAAS [CHIT1] and report it.
result: 4.77

query: Find the recorded protein stability index belonging to VPVRRPARRRQSAGPWPRPKGSLS [RASAL3] and report it.
result: 4.73

query: Find the recorded protein stability index belonging to ALAIKVNLCGHWYYSKACCRSCRP [ADAMTSL2] and report it.
result: 2.43

query: Find the recorded protein stability index belonging to NGASWHTVAGSLNDFSYLHTNCFE [CPXM2] and report it.
result: 2.68

query: Find the recorded protein stability index belonging to KHAAFVTPDQKYSMDNTPHTPTPF [MYBL2] and report it.
result: 3.84

query: Find the recorded protein stability index belonging to FQLPERGSRLCLYEDGTELTEDYF [DFFB] and report it.
result: 3.71

query: Find the recorded protein stability index belonging to YLLALTIIVSIVHSVFEFLAFKND [CLPTM1] and report it.
result: 2.98

query: Find the recorded protein stability index belonging to GSSGPAGLTLGRSFSNYRPFEPQA [SEPHS2] and report it.
result: 3.22

query: Find the recorded protein stability index belonging to PTPSTDAEYPANGSGADRIYDLNI [NCK2] and report it.
result: 4.69

query: Find the recorded protein stability index belonging to NTEDWRPRPGTGQSRSFRILAHLT [PDLIM7] and report it.
result: 2.81

query: Find the recorded protein stability index belonging to LRLRKERVSDVQKVLQGGEQEIQF [PKD2L1] and report it.
result: 3.74

query: Find the recorded protein stability index belonging to EVFEGREDSIFGDPKKLLTQYFVQ [MAGEA6] and report it.
result: 2.34

query: Find the recorded protein stability index belonging to HPKPKLVRVLESLLVSLVTTVVVF [CLCN6] and report it.
result: 3.49

query: Find the recorded protein stability index belonging to TVVREVIFLGFSSLARLQQLLFVI [OR10K2] and report it.
result: 3.15

query: Find the recorded protein stability index belonging to AIPEAIGFVMVPFEYRGEQHKTCM [EDNRA] and report it.
result: 2.36

query: Find the recorded protein stability index belonging to NTKEKIAFFASHQCSNRIGSMKIK [FBXO34] and report it.
result: 2.79

query: Find the recorded protein stability index belonging to GLRQRASNKVQDSAPVETPRGKPP [HMOX1] and report it.
result: 5

query: Find the recorded protein stability index belonging to CDPGMTAFEPEALGNLVEGLDFHR [CAMK2A] and report it.
result: 4.17

query: Find the recorded protein stability index belonging to QGTTVPAHRAILVARCEVMAAMFN [RHOBTB3] and report it.
result: 2.1

query: Find the recorded protein stability index belonging to CGDVHGQFHDLMELFRIGGKSPDT [PPP2CA] and report it.
result: 2.69

query: Find the recorded protein stability index belonging to VKSNTEQMREAFATAFSKLKPESS [ZBED1] and report it.
result: 4.34

query: Find the recorded protein stability index belonging to KHIPYREHKSLTGTARYMSINTHL [CSNK1G3] and report it.
result: 2.41

query: Find the recorded protein stability index belonging to SIYGIPHSTLEYKVKERLGTLKNP [LCOR] and report it.
result: 3.12

query: Find the recorded protein stability index belonging to YNDVMQENYETVISLALFVLPKPK [ZNF75A] and report it.
result: 2.82

query: Find the recorded protein stability index belonging to HGVDLSALRGAAVDEYFRQPVVDT [CARM1] and report it.
result: 4.13

query: Find the recorded protein stability index belonging to YVWVPIEQCLPSLENSKYCRFNQD [ATE1] and report it.
result: 2.3

query: Find the recorded protein stability index belonging to AQGRAGAPVPEPPKEEQQQALEQF [EPB41L3] and report it.
result: 5.62

query: Find the recorded protein stability index belonging to DSGASAITRESHTHRDRPSQQQPL [CSNK1G1] and report it.
result: 5.09

query: Find the recorded protein stability index belonging to KPSFQSGGRRRPPASSRNRSPSGS [RBMY1A1] and report it.
result: 4.93

query: Find the recorded protein stability index belonging to MARNPAAIDMFIIGATFTDWFTSY [FBXO3] and report it.
result: 3.1

query: Find the recorded protein stability index belonging to ALRGAAVDEYFRQPVVDTFDIRIL [CARM1] and report it.
result: 2.48

query: Find the recorded protein stability index belonging to YYTFHFLYFKDKIFNVAIPRFHMA [FBXO3] and report it.
result: 3.06

query: Find the recorded protein stability index belonging to TGRFSFTLPYPVKIKVRFSFFLQI [HACD3] and report it.
result: 3.14

query: Find the recorded protein stability index belonging to YTFHARFGEVRPYFYLGGARGAGP [TRIM35] and report it.
result: 2.27

query: Find the recorded protein stability index belonging to ALKDNKSPLHLVQMPPVIVETARS [PI4K2A] and report it.
result: 3.8

query: Find the recorded protein stability index belonging to TRHVFTCGRRGIKVWSLTGQVAED [TLE6] and report it.
result: 2.62
